The measurements presented in this section are drawn from ChEMBL document CHEMBL5316309.

Assay details: Mutagenecity in Salmonella typhimurium by Ames test
Format: toxicity
Condition set: salmonella sp.
Value type: Activity

Look over these answered cases.
Compound: N#Cc1ccc(N[C@@H]2CCCC[C@]2(O)C(F)(F)F)cc1
Result: Non-Toxic
//
Compound: O[C@]1(C(F)(F)F)CCCC[C@H]1Nc1ccc(Cl)c(F)c1
Result: Non-Toxic
//
Compound: COc1cc(N[C@@H]2CCCC[C@]2(O)C(F)(F)F)ccc1F
Result: Non-Toxic
//
Compound: O[C@]1(C(F)(F)F)CCCC[C@H]1Nc1ccc(F)c(Cl)c1
Result: Non-Toxic
//
Compound: O[C@]1(C(F)(F)F)CCCC[C@H]1Nc1ccc(F)cc1
Result: Non-Toxic

Which Activity reading was recorded for the compound N#Cc1ccc(NC2CCCCC2(O)C(F)(F)F)cc1C(F)(F)F (racemic) ? Non-Toxic

Then what about the compound O[C@]1(C(F)(F)F)CCCC[C@H]1Nc1cccc(F)c1 ? Non-Toxic

Now the compound O[C@]1(C(F)(F)F)CCCC[C@H]1Nc1ccc(Cl)c(Cl)c1 Non-Toxic

Lookup O[C@]1(C(F)(F)F)CCCC[C@H]1Nc1ccc(F)cn1 Non-Toxic

Repeat with O[C@]1(C(F)(F)F)CCCC[C@H]1Nc1ccc(Cl)cc1 Toxic

* * *

Study system: Transient receptor potential cation channel subfamily A member 1 (Rattus norvegicus, UniProt Q6RI86)
Sequence (Q6RI86 whole entry): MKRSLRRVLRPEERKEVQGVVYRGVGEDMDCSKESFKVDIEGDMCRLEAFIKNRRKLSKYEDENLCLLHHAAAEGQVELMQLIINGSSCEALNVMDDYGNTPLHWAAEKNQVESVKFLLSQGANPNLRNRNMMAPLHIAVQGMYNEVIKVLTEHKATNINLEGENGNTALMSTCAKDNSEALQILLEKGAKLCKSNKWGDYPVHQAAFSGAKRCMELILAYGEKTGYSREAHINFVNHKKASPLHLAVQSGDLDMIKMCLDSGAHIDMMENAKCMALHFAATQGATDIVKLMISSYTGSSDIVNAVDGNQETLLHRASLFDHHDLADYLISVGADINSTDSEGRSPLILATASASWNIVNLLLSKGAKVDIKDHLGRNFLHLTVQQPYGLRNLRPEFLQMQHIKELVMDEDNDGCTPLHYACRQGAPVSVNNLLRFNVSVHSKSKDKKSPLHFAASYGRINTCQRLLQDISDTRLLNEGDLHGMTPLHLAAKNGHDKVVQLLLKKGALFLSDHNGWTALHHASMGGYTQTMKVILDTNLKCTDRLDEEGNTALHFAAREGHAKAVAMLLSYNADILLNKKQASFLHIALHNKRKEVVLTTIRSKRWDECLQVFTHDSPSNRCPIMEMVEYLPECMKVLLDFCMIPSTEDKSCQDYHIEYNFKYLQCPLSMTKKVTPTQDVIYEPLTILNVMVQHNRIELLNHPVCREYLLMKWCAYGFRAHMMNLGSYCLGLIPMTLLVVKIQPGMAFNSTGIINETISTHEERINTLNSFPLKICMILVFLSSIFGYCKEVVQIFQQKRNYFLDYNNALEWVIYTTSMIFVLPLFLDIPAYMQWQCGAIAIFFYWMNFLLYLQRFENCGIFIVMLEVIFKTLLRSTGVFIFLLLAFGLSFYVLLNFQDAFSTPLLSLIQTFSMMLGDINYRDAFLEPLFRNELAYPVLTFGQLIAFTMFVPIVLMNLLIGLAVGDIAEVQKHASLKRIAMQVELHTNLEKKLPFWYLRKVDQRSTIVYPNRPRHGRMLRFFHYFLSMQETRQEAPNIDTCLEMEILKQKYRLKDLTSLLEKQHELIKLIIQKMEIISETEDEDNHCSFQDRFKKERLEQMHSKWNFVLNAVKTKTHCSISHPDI
Assay details: Antagonist activity at rat TRPA1 channel expressed in CHO-K1 cells tagged with GCaMP6 by measuring calcium flux measured after 10 mins by FLIPR tetra analysis
Value type: IC50

Reference set (2 entries):
Molecule: O[C@]1(C(F)(F)F)CCCC[C@H]1Cc1cncc(Cl)c1
Result: > 25 µM

Molecule: COc1cc(N[C@@H]2CCCC[C@]2(O)C(F)(F)F)ccc1F
Result: > 25 µM

Could you share which IC50 value was measured for CC1(C)CCCC(O)(C(F)(F)F)C1Cc1ccc(F)cc1F (mixture of isomers) ? > 10 µM

Same question, N#Cc1ccc(NC2CCCCC2(O)C(F)(F)F)cc1C(F)(F)F (racemic) this time > 25 µM

Param item: O[C@]1(C(F)(F)F)CCCC[C@H]1Cc1ccc(Cl)cn1 > 25 µM

Also Cc1ccc(CC2C(C)(C)CCCC2(O)C(F)(F)F)cc1 (mixture of isomers) ? > 12.5 µM
